Test: Human HepG2 cell viability assay in 384 well format
Format: toxicity, cell-based
Parameters: dose 125 nL, time 70.5 hour; concentration not given beside the values
Details: HepG2 cells, read-out: Inhibition
Listing of entries alongside the reported cytotoxicity at 70.5 h.
parameterMeasured: cytotoxicity at 70.5 h (%)

compound	parameterMeasured	experimentalValue
CN1N=C(C(=O)N2CCCC(CCc3cccc(F)c3)C2)CCC1=O (stereo unspecified)	cytotoxicity at 70.5 h	-3.78
O=C(CN1CCN(C(=O)c2cccc(-c3ccoc3)c2)CC1)C1CC1	cytotoxicity at 70.5 h	-5.66
CCOc1ncccc1NC(=O)N1CCN(c2cccc(C)c2C)CC1	cytotoxicity at 70.5 h	21.9
CC(C)Nc1cccc(CNC(=O)N2CCCC2)c1	cytotoxicity at 70.5 h	-5.5
Cc1ccc(CNCc2nccn2C)c(OCC2CC2)c1	cytotoxicity at 70.5 h	7.03
CCCc1nnc(NC2CCN(C3CCOCC3)CC2)o1	cytotoxicity at 70.5 h	-9.47
CC(Nc1cccc(CN2CCOC2=O)c1)C(=O)NC(N)=O (stereo unspecified)	cytotoxicity at 70.5 h	32
Cc1cnn(CC2CN(Cc3nc(C4CC4)no3)CCO2)c1 (stereo unspecified)	cytotoxicity at 70.5 h	-6.98
Cn1ccc(-c2cc(C(=O)N3CCC(C(N)=O)CC3)c3ccccn23)n1	cytotoxicity at 70.5 h	-8.35
Cc1cc(C2CCCN2C(=O)c2cnn(C)c2)on1 (stereo unspecified)	cytotoxicity at 70.5 h	14
CCC(O)CN(Cc1ccccc1)S(=O)(=O)c1cnc(C)s1 (stereo unspecified)	cytotoxicity at 70.5 h	-9.64
